Where these numbers come from: the RNAGym collection of RNA variant scans (doi:10.7554/elife.80360)

B1: Twister Ribozyme (parent)
chain: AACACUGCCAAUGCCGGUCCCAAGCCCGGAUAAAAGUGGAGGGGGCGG

Variants of: B1
protocol: self-cleavage, relative activity (ratio to wild type); higher = more cleavage; co-transcriptional
Lab note: anything with self-cleavage at or over 0.1 counts as met; the rest go in not met.

Examples with answers:
* AACACUGCCAAUGCCGGUCCCAAGCCCGGAUAAAAGUGGAAUGGGCGG | met
* AACACCGCCAAUGCCGGUGCCAAGCCCGGAUAAAAGUGGAGGGGGCGG | not met
* AACACUGCCAAUGCCGGUCCCAAGCCCUGAUAAAAGUUGAGGGGGCGG | met

Asked: Given AACACUGCCAAUGCUGGUCCCAAGCCCGGAUACAAGUGGAGGGGGCGG , state whether its self-cleavage is at least 0.1.
Given back: met

Asked: Tell me whether self-cleavage is at least 0.1 here: AACACUGCCAAUGCCGGUCCCAAGCCCGGAUAAGAGUGGGGGGGGCGG
Given back: met

Asked: Record AACACUGCCAAUGCCGGUCCCAACCCCGGAUAAAAGUGGAGAGGGCGG ; criterion: self-cleavage no lower than 0.1. Met?
Given back: met
